assay_target: Neutrophil elastase (Homo sapiens) (UniProt P08246)
Sequence (P08246 whole entry): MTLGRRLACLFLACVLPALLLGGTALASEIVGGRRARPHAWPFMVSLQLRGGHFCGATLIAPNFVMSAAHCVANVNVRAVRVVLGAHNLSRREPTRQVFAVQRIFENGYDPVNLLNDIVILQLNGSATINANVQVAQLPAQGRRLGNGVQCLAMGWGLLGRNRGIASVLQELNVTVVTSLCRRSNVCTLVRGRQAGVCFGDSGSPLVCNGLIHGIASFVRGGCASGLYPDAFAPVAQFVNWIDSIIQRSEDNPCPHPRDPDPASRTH
assay_explanation: Second order rate constant for enzyme-inhibitor complex Human Leukocyte Elastase inhibition was determined
quantity_name: kon (10e3* M-1 s-1)

CN(c1nc2sc3c(c2c(=O)o1)CCCC3)C1CCCCC1	< 0.6

Recorded kon (10e3* M-1 s-1) for `CCN(CC)c1nc2sc(C)c(C)c2c(=O)o1` , please?
< 0.6

Reported kon (10e3* M-1 s-1) for `O=c1oc(N2CCOCC2)nc2sc3c(c12)CCCC3` : what is it?
< 0.8

Would you kindly share the measured kon (10e3* M-1 s-1) for `Cc1sc2nc(N3CCOCC3)oc(=O)c2c1C` ?
< 0.6

---

Quick list: Log kOH- per entry.
assay_explanation: Alkaline hydrolysis rate (logk-OH)
Assay type: ADME
experimental_parameters: 50 mM CAPS, pH 10.5 or 11.5, 25 °C
Output: the number by itself.

Consider the following illustrative entries.
CCOc1nc2sc(C)c(C)c2c(=O)o1	0.45
CCSc1nc2sc(C)c(C)c2c(=O)o1	0.1
CCSc1nc2sc3c(c2c(=O)o1)CCCC3	-0.22

API: the following record is the query input.
Name the recorded Log kOH- for `Cc1sc2nc(SCc3ccccc3)oc(=O)c2c1C` .
-0.16
